// reported P8_MAL Rank (before) per item
# study-system: MAL^TIR (Homo sapiens)
# Construct: MAL (residues 79–221); 6xHis; made in house; host or cells: E. coli BL21 (DE3)
# Sequence (P58753 79-221): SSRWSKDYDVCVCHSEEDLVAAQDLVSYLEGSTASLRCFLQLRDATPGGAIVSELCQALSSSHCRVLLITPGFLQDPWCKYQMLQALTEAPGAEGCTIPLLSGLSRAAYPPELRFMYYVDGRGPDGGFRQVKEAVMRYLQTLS
# assay-comment: T‐Surf phage library (P8 and P3) selection against MAL^TIR, four rounds, NGS read counts
# Type: binding
# particulars: P8 library, selection against MAL TIR; rank by count before grouping
measurement-kind: P8_MAL Rank (before)

>>> result_value("KLFWEKFKFFRPSLSC")
2709
>>> result_value("SFYWRQVSIILGDPTV")
1442
>>> result_value("LFYEESLKQLLRANDR")
1101
>>> result_value("AFFWAQLKRAGQSDD")
1607
>>> result_value("AFLYTFLINLTHPQF")
1852
>>> result_value("LFFWDSLKQLMRSDGR")
2070
>>> result_value("TFLRHLYNALVQAGLH")
2627
>>> result_value("LFFWGSLRQLLRNDDG")
2058
>>> result_value("YFLHFLLFRRPENAYM")
1461
>>> result_value("AFLYTFLINLTHKPTF")
1866
>>> result_value("AFFGAQLKSVLGNPPM")
1740
>>> result_value("AFFGAQLKSVLRNPTM")
1739
>>> result_value("WFYERLVSLILPVTKV")
1264
>>> result_value("AFLYTFLLNLTHPTNL")
1830
>>> result_value("AFFCAHLRTVLGKPTM")
1586
>>> result_value("WFYERLVILVLRDTKG")
1179
>>> result_value("GFFERLVRMILRDTKV")
1567
>>> result_value("AFFWDSCVPCWANRR")
1666
